system: Krebsiella pneumoniae 8045
Overview of reported MIC across a group of molecules:
Supply the numeric figure in µg/mL, leaving out any unit text.

For orientation, consider the following solved cases.
{"MOLECULE SMILES": "CO/N=C(\\C(=O)N[C@@H]1C(=O)N2C(C(=O)O)=C[C@@H](N=[N+]=[N-])C[C@H]12)c1csc(N)n1", "VALUE KIND": "MIC", "VAL": 0.02}
{"MOLECULE SMILES": "CC(=O)Oc1ccc(C(=O)O/N=C(\\C(=O)N[C@@H]2C(=O)N3C(C(=O)O)=C[C@H](N=[N+]=[N-])C[C@H]23)c2csc(N)n2)cc1OC(C)=O", "VALUE KIND": "MIC", "VAL": 0.02}
{"MOLECULE SMILES": "CO/N=C(\\C(=O)N[C@@H]1C(=O)N2C(C(=O)O)=C[C@@H](Sc3ccncc3)C[C@H]12)c1csc(N)n1", "VALUE KIND": "MIC", "VAL": 0.2}
{"MOLECULE SMILES": "CO/N=C(\\C(=O)N[C@@H]1C(=O)N2C(C(=O)O)=C[C@H](N=[N+]=[N-])C[C@H]12)c1csc(N)n1", "VALUE KIND": "MIC", "VAL": 0.02}
{"MOLECULE SMILES": "CO/N=C(\\C(=O)N[C@@H]1C(=O)N2C(C(=O)O)=C[C@H](Sc3nnnn3-c3ccccc3)C[C@H]12)c1csc(N)n1", "VALUE KIND": "MIC", "VAL": 0.39}

Now look at this one.
Input: Value wanted: MIC (Krebsiella pneumoniae 8045) of entry CO/N=C(\C(=O)N[C@@H]1C(=O)N2C(C(=O)O)=C[C@H](Sc3nnnn3C)C[C@H]12)c1csc(N)n1
Output: 0.02

----------
Overview of reported MIC across a group of molecules:
test system: Pseudomonas sepatia F-2251; experiment: Antibacterial effect, dilution method on Mueller-Hinton agar (MIC); assay type: cell-based; details: F2251
Supply the numeric figure in µg/mL, leaving out any unit text.

Input: Item CO/N=C(\C(=O)N[C@@H]1C(=O)N2C(C(=O)O)=C[C@H](Sc3nnnn3-c3ccccc3)C[C@H]12)c1csc(N)n1 has what recorded MIC?
Output: 25

Input: Further, for CO/N=C(\C(=O)N[C@@H]1C(=O)N2C(C(=O)O)=C[C@H](Sc3nnnn3C)C[C@H]12)c1csc(N)n1 ?
Output: 25

Input: Further, for CO/N=C(\C(=O)N[C@@H]1C(=O)N2C(C(=O)O)=C[C@@H](Sc3ccncc3)C[C@H]12)c1csc(N)n1 ?
Output: 12.5

Input: Further, for CO/N=C(\C(=O)N[C@@H]1C(=O)N2C(C(=O)O)=C[C@@H](N=[N+]=[N-])C[C@H]12)c1csc(N)n1 ?
Output: 25

Input: Further, for CO/N=C(\C(=O)N[C@@H]1C(=O)N2C(C(=O)O)=C[C@H](N=[N+]=[N-])C[C@H]12)c1csc(N)n1 ?
Output: 12.5

Input: Further, for CC(=O)Oc1ccc(C(=O)O/N=C(\C(=O)N[C@@H]2C(=O)N3C(C(=O)O)=C[C@H](N=[N+]=[N-])C[C@H]23)c2csc(N)n2)cc1OC(C)=O ?
Output: 0.02

----------
The following are reported MIC results, target or system Enterobacter aerogenes F-1948.
Supply the numeric figure in µg/mL, leaving out any unit text.

For orientation, consider the following solved cases.
{"MOLECULE SMILES": "CC(=O)Oc1ccc(C(=O)O/N=C(\\C(=O)N[C@@H]2C(=O)N3C(C(=O)O)=C[C@H](N=[N+]=[N-])C[C@H]23)c2csc(N)n2)cc1OC(C)=O", "MIC [µg/mL]": 3.13}
{"MOLECULE SMILES": "CO/N=C(\\C(=O)N[C@@H]1C(=O)N2C(C(=O)O)=C[C@@H](Sc3ccncc3)C[C@H]12)c1csc(N)n1", "MIC [µg/mL]": 50}

Input: Item CO/N=C(\C(=O)N[C@@H]1C(=O)N2C(C(=O)O)=C[C@@H](N=[N+]=[N-])C[C@H]12)c1csc(N)n1 has what recorded MIC?
Output: 25

----------
system: Pseudomonas aerginosa 145; assay: Antibacterial effect, dilution method on Mueller-Hinton agar (MIC); format: cell-based
VALUE KIND: MIC
Show the value, then the unit it is measured in.

For orientation, consider the following solved cases.
{"COMPOUND": "CC(=O)Oc1ccc(C(=O)O/N=C(\\C(=O)N[C@@H]2C(=O)N3C(C(=O)O)=C[C@H](N=[N+]=[N-])C[C@H]23)c2csc(N)n2)cc1OC(C)=O [Ex. 6]", "MIC": "0.1 µg/mL"}
{"COMPOUND": "CO/N=C(\\C(=O)N[C@@H]1C(=O)N2C(C(=O)O)=C[C@@H](N=[N+]=[N-])C[C@H]12)c1csc(N)n1 [Ex.26]", "MIC": "12.5 µg/mL"}
{"COMPOUND": "CO/N=C(\\C(=O)N[C@@H]1C(=O)N2C(C(=O)O)=C[C@H](Sc3nnnn3-c3ccccc3)C[C@H]12)c1csc(N)n1 [Ex. 13]", "MIC": "12.5 µg/mL"}
{"COMPOUND": "CO/N=C(\\C(=O)N[C@@H]1C(=O)N2C(C(=O)O)=C[C@H](Sc3nnnn3C)C[C@H]12)c1csc(N)n1 [Ex.15]", "MIC": "12.5 µg/mL"}
{"COMPOUND": "CO/N=C(\\C(=O)N[C@@H]1C(=O)N2C(C(=O)O)=C[C@H](N=[N+]=[N-])C[C@H]12)c1csc(N)n1 [Exs. 5 and 17]", "MIC": "6.25 µg/mL"}

Input: Item CO/N=C(\C(=O)N[C@@H]1C(=O)N2C(C(=O)O)=C[C@@H](Sc3ccncc3)C[C@H]12)c1csc(N)n1 [Ex.23] has what recorded MIC?
Output: 12.5 µg/mL

Provenance of the data: patent EP0082501A1
